TARGET OR SYSTEM: TAdV-3 fibre head (avirulent) (Turkey adenovirus 3)
METHOD SUMMARY: Isothermal titration calorimetry (ITC), avirulent fibre head
Format: binding, turkey adenovirus 3 (TAdV-3)
CONDITION CONTEXT: 25°C, pH 6.0, three independent sites per trimer
EXPERIMENTAL ENDPOINT: pKd
// returns pKd (minus log10 of molar concentration), number only

Data request: State its pKd for this compound: CC(=O)NC1C(O)CC(OC2C(O)C(CO)OC(OC3C(CO)OC(O)C(O)C3O)C2O)(C(=O)O)OC1C(O)C(O)CO (centres unmarked) [3'-sialyllactose]
Data returned: 2.44

---

TARGET OR SYSTEM: TAdV-3 fiber head mutant N407A (avirulent context) (Turkey adenovirus 3, UniProt A0ABF7PFF5, N407A)
METHOD SUMMARY: biochemical
EXPERIMENTAL ENDPOINT: pKd
// returns pKd (minus log10 of molar concentration), number only

Data request: State its pKd for this compound: CC(=O)NC1C(O)CC(OC2C(O)C(CO)OC(OC3C(CO)OC(O)C(O)C3O)C2O)(C(=O)O)OC1C(O)C(O)CO (stereo not shown) [3'-sialyllactose]
Data returned: 2.56
